This collection of values is drawn from patent US8080529B2.

System: IL-8
Assay: Inhibition of IL-8 production by stimulated human peripheral blood leukocytes in vitro
Type: cell-based
Conditions: Homo sapiens, Leukocyte, 50 μM; zymosan-stimulated PBL; read-out: Percentage of inhibition of IL-8 production
Please note: Criterion met applies when inhibition at 50 µM is 10% or greater, and Criterion not met applies otherwise.

Illustrative cases are given below, each with its answer.
CC[C@H]1OC(=O)[C@H](C)[C@@H](O[C@H]2C[C@@](C)(OC)[C@@H](O)[C@H](C)O2)[C@H](C)[C@@H](O[C@@H]2O[C@H](C)C[C@H](N(C)C)[C@H]2O)[C@](C)(OC)C[C@@H](C)C(=O)[C@H](C)[C@@H](O)[C@]1(C)O [clarithromycin, reference compound]; Criterion not met
CC[C@H]1OC(=O)[C@H](C)[C@@H](O[C@H]2C[C@@](C)(OC)[C@@H](OC(=O)CCN(C)CCN(CC)CC)[C@H](C)O2)[C@H](C)[C@@H](O[C@@H]2O[C@H](C)C[C@H](N(C)C)[C@H]2O)[C@](C)(OC)C[C@@H](C)C(=O)N[C@H](C)[C@@H](O)[C@]1(C)O; Criterion met
CC[C@H]1OC(=O)[C@H](C)[C@@H](O[C@H]2C[C@@](C)(OC)[C@@H](OC(=O)CCN(CC)CC)[C@H](C)O2)[C@H](C)[C@@H](O[C@@H]2O[C@H](C)C[C@H](N(C)C)[C@H]2O)[C@](C)(OC)C[C@@H](C)C(=O)[C@H](C)[C@H]2NC(=O)O[C@@]21C; Criterion met

Form field: inhibition at 50 µM at least 10%? Entry: CC[C@H]1OC(=O)[C@H](C)[C@@H](O[C@H]2C[C@@](C)(OC)[C@@H](OC(=O)CCN3CCN(CCN(C)C)CC3)[C@H](C)O2)[C@H](C)[C@@H](O[C@@H]2O[C@H](C)C[C@H](N(C)C)[C@H]2O)[C@](C)(OC)C[C@@H](C)C(=O)N[C@H](C)[C@@H](O)[C@]1(C)O
Criterion met

Form field: inhibition at 50 µM at least 10%? Entry: CC[C@H]1OC(=O)[C@H](C)[C@@H](O[C@H]2C[C@@](C)(OC)[C@@H](O)[C@H](C)O2)[C@H](C)[C@@H](O[C@@H]2O[C@H](C)C[C@H](N(C)C)[C@H]2O)[C@](C)(O)C[C@@H](C)CN(C)[C@H](C)[C@@H](O)[C@]1(C)O [azithromycin, reference compound]
Criterion not met

Form field: inhibition at 50 µM at least 10%? Entry: CC[C@H]1OC(=O)[C@H](C)[C@@H](O[C@H]2C[C@@](C)(OC)[C@@H](OC(=O)CCN3CCN(CC4CCCN(C)C4)CC3)[C@H](C)O2)[C@H](C)[C@@H](O[C@@H]2O[C@H](C)C[C@H](N(C)C)[C@H]2O)[C@](C)(OC)C[C@@H](C)C(=O)N[C@H](C)[C@@H](O)[C@]1(C)O (stereo partly shown)
Criterion met

Form field: inhibition at 50 µM at least 10%? Entry: C=CC(=O)OC1[C@H](C)O[C@@H](O[C@H]2[C@H](C)[C@@H](O[C@@H]3O[C@H](C)C[C@H](NC)[C@H]3O)[C@](C)(OC)C[C@@H](C)C(=O)N[C@H](C)[C@@H](O)[C@](C)(O)[C@@H](CC)OC(=O)[C@@H]2C)C[C@@]1(C)OC (stereo partly shown)
Criterion met
